Values compiled from the supplement of paper PMC10567573.

B1: C22orf15 (parent)
chain: ITQSWQVSVRVQPRGRAHLLPNPY

variants of: B1; experiment: protein stability index of a GFP-peptide fusion (GPS, HEK-293T) (PSI 1-6); higher = more stable; settings: c terminus: a fixed tail appended;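 also: lentivirally expressed fusions sorted by FACS into six bins by GFP to DsRed ratio, PSI derived from sequencing read proportions per bin multiplied by bin number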
# cutoff 2 applies to protein stability index; >= gives Condition met, < gives Condition not met

Solved cases (3 shown):
Has ITQSWQVSVRVQPRGRAHLLANPY [P21A] a recorded protein stability index greater than or equal to 2? Condition not met

Check the entry ITQSWQVSVRVQKRGRAHLLPNPY [P13K] : does protein stability index equal or exceed 2? Condition not met

Reported protein stability index at or above 2? ITQSWQGSVRVQPRGRAHLLPNPY [V7G] Condition met

More entries:
Dear colleague, could you confirm whether ITQSWQVSARVQPRGRAHLLPNPY [V9A] has protein stability index at or above 2? Condition met

Check this variant for protein stability index at or above 2: HTQSWQVSVRVQPRGRAHLLPNPY [I1H] Condition met

Confirm if protein stability index reported for the variant ITQSWQVSVRIQPRGRAHLLPNPY [V11I] is 2 or above. Condition met

Is the recorded value of protein stability index equal to or greater than 2 for this variant? ITQSWQVHVRVQPRGRAHLLPNPY [S8H] Condition met
